Target: human D2long, D2short (Homo sapiens)
Sequence (P14416 whole entry): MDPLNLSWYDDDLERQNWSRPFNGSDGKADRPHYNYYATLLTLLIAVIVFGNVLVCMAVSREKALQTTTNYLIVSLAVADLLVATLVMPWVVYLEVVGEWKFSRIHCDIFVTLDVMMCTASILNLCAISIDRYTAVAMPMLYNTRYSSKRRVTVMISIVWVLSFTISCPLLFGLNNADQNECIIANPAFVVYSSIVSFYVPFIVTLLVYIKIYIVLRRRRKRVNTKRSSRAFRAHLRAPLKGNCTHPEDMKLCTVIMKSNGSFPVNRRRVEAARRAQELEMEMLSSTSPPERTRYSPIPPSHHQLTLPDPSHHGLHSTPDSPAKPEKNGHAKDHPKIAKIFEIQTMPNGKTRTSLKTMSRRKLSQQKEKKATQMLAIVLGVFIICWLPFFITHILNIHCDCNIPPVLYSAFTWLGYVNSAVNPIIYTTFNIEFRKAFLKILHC
Test: biochemical
Type: binding
Details: CHO cell membranes, [3H]spiperone; mean of two to five experiments in triplicate; read-out: Ki D2
Source text: These experiments have been done according to methods which are described in literature (Hübner, H. et al., J. Med. Chem. (2000), 43, 7562). For the determination of binding affinity to the receptors of the dopamine D2 family membranes were established carrying the human D2long, D2short, D3 or D4.4 receptor subtype stably expressed in Chinese hamster ovary cell lines. […]
Give measured Ki for each item. Keep answers brief.

Some molecules with known Ki results, for comparison:
{"Molecule": "Cc1ccc(CNCC2(F)CCN(C(=O)c3cc4ccccn4n3)CC2)nc1", "Measurement Target": "human D2long, D2short (Homo sapiens)", "Measured": "> 5 µM"}
{"Molecule": "Cc1ccc(CNCC2(F)CCN(C(=O)c3cccs3)CC2)nc1 [Example E1]", "Measurement Target": "human D2long, D2short (Homo sapiens)", "Measured": "> 5 µM"}
{"Molecule": "COc1c(C(=O)N2CCC(F)(CNCc3ccc(C)cn3)CC2)csc1Br", "Measurement Target": "human D2long, D2short (Homo sapiens)", "Measured": "> 5 µM"}

Provide each entry's Ki from the list below.
1. Cc1ccc(CNCC2(F)CCN(C(=O)c3scc4c3CCCC4)CC2)nc1
2. Cc1ccc(CNCC2(F)CCN(C(=O)c3sccc3C)CC2)nc1
3. Cc1ccc(CNCC2(F)CCN(C(=O)c3csc4ccccc34)CC2)nc1
4. Cc1ccc(CNCC2(F)CCN(C(=O)c3ccc(-c4ccccc4)s3)CC2)nc1
5. COc1cscc1C(=O)N1CCC(F)(CNCc2ccc(C)cn2)CC1

Response given:
1. > 5 µM
2. > 5 µM
3. > 5 µM
4. 0.501 to 5 µM
5. > 5 µM

Challenge: Return reported Ki for target or system human D2long, D2short (Homo sapiens), item CSc1ccc(C(=O)N2CCC(F)(CNCc3ccc(C)cn3)CC2)s1 .
Response given: > 5 µM

====

Molecular target: human D3 (Homo sapiens, UniProt P35462)
Sequence (P35462 whole entry): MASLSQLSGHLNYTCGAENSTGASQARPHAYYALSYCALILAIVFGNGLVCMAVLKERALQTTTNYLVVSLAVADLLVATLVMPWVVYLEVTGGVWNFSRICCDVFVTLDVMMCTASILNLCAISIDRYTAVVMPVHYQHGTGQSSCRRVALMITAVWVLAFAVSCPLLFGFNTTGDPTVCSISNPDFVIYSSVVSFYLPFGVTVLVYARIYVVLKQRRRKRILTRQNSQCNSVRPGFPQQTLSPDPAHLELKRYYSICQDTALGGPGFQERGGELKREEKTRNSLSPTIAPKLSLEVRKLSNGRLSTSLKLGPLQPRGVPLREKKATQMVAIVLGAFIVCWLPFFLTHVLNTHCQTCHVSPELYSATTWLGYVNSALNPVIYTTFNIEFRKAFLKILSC
Assay: radioligand binding assay, dopamine D3 receptor, [3H]spiperone
Conditions: read-out: Ki D3, CHO cell membranes, mean of two to five experiments in triplicate
Source text: These experiments have been done according to methods which are described in literature (Hübner, H. et al., J. Med. Chem. (2000), 43, 7562). For the determination of binding affinity to the receptors of the dopamine D2 family membranes were established carrying the human D2long, D2short, D3 or D4.4 receptor subtype stably expressed in Chinese hamster ovary cell lines. […]
Readout: Ki

Challenge: Quote Ki reported for Cc1ccc(CNCC2(F)CCN(C(=O)c3coc4ccccc34)CC2)nc1 please.
Response given: > 5 µM

====

Give measured Ki for each item. Keep answers brief.
Target: 5-HT1A (Sus scrofa, UniProt A0A4X1UTF5)
Construct: membrane preparations from porcine cortex; from tissue; host or cells: porcine cortex
Sequence (A0A4X1UTF5 1-422): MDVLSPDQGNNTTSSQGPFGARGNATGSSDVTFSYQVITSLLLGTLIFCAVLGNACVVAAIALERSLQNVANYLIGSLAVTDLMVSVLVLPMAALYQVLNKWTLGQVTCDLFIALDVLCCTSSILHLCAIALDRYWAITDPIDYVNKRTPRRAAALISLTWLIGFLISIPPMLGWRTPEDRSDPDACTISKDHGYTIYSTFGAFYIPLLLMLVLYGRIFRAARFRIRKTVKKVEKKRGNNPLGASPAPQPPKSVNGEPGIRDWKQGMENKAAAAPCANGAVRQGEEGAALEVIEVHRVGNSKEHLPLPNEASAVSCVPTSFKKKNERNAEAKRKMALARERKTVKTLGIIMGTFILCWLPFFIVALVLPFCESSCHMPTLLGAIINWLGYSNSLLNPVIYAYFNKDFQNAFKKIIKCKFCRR
Assay: radioligand binding assay, serotonin 5-HT1A receptor, [3H]WAY 100635
Details: porcine cortex membranes, mean of two to five experiments in triplicate, read-out: Ki 5-HT1a

Some compounds with known Ki results, for comparison:
{"Compound": "Cc1ccc(CNCC2(F)CCN(C(=O)c3ccsc3Br)CC2)nc1 [Example E19]", "Measurement Target": "5-HT1A (Sus scrofa, UniProt A0A4X1UTF5)", "Measured": "< 50 nM"}
{"Compound": "Cc1ccc(CNCC2(F)CCN(C(=O)c3ccc[nH]3)CC2)nc1 [Example E37]", "Measurement Target": "5-HT1A (Sus scrofa, UniProt A0A4X1UTF5)", "Measured": "501 to 5000 nM"}
{"Compound": "Cc1ccc(CNCC2(F)CCN(C(=O)c3ccc(Br)s3)CC2)nc1 [Example E7]", "Measurement Target": "5-HT1A (Sus scrofa, UniProt A0A4X1UTF5)", "Measured": "< 50 nM"}

Provide each entry's Ki from the list below.
1. COc1c(C(=O)N2CCC(F)(CNCc3ccc(C)cn3)CC2)csc1Cl [Example E21]
2. Cc1ccc(CNCC2(F)CCN(C(=O)c3sccc3C)CC2)nc1 [Example E9]
3. COc1cscc1C(=O)N1CCC(F)(CNCc2ccc(C)cn2)CC1 [Example E20]
4. Cc1ccc(CNCC2(F)CCN(C(=O)c3sc(Br)c4c3OCCO4)CC2)nc1 [Example E30]
5. Cc1ccc(CNCC2(F)CCN(C(=O)c3cc4ccsc4s3)CC2)nc1 [Example E27]
6. Cc1ccc(CNCC2(F)CCN(C(=O)c3ccc(C)s3)CC2)nc1 [Example E11]
7. Cc1ccc(CNCC2(F)CCN(C(=O)c3cc4ccccc4s3)CC2)nc1 [Example E23]
8. Cc1ccc(CNCC2(F)CCN(C(=O)c3ccsc3)CC2)nc1 [Example E18]

Response given:
1: < 50 nM; 2: < 50 nM; 3: 50 to 500 nM; 4: < 50 nM; 5: < 50 nM; 6: < 50 nM; 7: 50 to 500 nM; 8: < 50 nM

Challenge: Return reported Ki for target or system 5-HT1A (Sus scrofa, UniProt A0A4X1UTF5), item Cc1ccc(CNCC2(F)CCN(C(=O)c3sccc3Br)CC2)nc1 [Example E5] .
Response given: < 50 nM
